All figures here come from the supplement of paper PMC6555819.

- Test system: RARa homodimer (NR concentration 270 nM)
- experimental.details: PBM binding z-score (relative to random genomic background probes); higher = stronger binding; sequences stand for … in GC…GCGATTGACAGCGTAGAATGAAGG
Threshold rule: PBM binding z-score greater than or equal to 0.4 is T; below that, F.

These recorded examples may help you get a feel for the data.
>  <ordered.residues>
ATATGTAGGTTACATCCGGGTCTTTCAGGCTATG

>  <category.label>
T

$$$$
>  <ordered.residues>
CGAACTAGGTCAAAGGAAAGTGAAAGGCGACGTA

>  <category.label>
T

$$$$
>  <ordered.residues>
ACTTACGGGTCAACGAAGTTATAGCACGCGTATA

>  <category.label>
T

$$$$

Asked: Reported PBM binding z-score at or above 0.4? CGAACTAGGTCACCTGGACAGTGAAGAGGTTGGA
Given back: F

====

- System: THRa homodimer (NR concentration 90 nM)
- experimental.details: PBM binding z-score (relative to random genomic background probes); higher = stronger binding; sequences stand for … in GC…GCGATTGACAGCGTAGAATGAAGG
property: PBM binding z-score
Provide a numeric answer; units are not to be included.

>  <ordered.residues>
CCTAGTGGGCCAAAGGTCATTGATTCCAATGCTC

>  <PBM binding z-score>
0.756

$$$$
>  <ordered.residues>
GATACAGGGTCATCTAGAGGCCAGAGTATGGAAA

>  <PBM binding z-score>
0.837

$$$$
>  <ordered.residues>
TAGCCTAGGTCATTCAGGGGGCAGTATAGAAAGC

>  <PBM binding z-score>
2.11

$$$$
>  <ordered.residues>
CTACGTAGGTTAAGGGGGTCATTCAGTTTGAAAG

>  <PBM binding z-score>
1.23

$$$$
>  <ordered.residues>
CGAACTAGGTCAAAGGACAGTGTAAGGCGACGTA

>  <PBM binding z-score>
0.826

$$$$
>  <ordered.residues>
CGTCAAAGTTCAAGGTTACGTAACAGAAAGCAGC

>  <PBM binding z-score>
1.33

$$$$

Asked: // lookup PBM binding z-score for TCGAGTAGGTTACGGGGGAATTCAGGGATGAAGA
Given back: 0.716

Asked: What do we get for ATATGTAAGTTAGGGTCATTCAGAAAGTAGGGAA ?
Given back: 2.85

====

- System: RARa homodimer (NR concentration 270 nM)
- experimental.details: PBM binding z-score (relative to random genomic background probes); higher = stronger binding; sequences stand for … in GC…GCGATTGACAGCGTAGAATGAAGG
property: PBM binding z-score
Provide a numeric answer; units are not to be included.

The examples below pair each entry with its known result.
>  <ordered.residues>
CAAACTAGGTCAAAGGACAGTGAAAGGCGACGTA

>  <PBM binding z-score>
0.774

$$$$
>  <ordered.residues>
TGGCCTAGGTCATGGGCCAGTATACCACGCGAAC

>  <PBM binding z-score>
-0.155

$$$$
>  <ordered.residues>
GCATACGGGTCAAAGGTTATAGCATGAATAGAAT

>  <PBM binding z-score>
0.512

$$$$
>  <ordered.residues>
ACTCGGAGGACAAATGTCAGAGCTACGCCAGTGA

>  <PBM binding z-score>
-0.635

$$$$
>  <ordered.residues>
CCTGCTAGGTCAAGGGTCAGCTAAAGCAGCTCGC

>  <PBM binding z-score>
0.368

$$$$

# ---- query sequence ----
Asked: // lookup PBM binding z-score for ATATGTACGTTAGGGTCATTCAGAAAGTAGGGAA
Given back: 1.08
